System: Enterococcus faecalis
Assay: Minimal inhibitory concentration of compound against Streptococcus faecalis AACC7080
Format: functional
Just a reminder that ties go to F: only MIC strictly below 1 µg/mL counts as T.

Past entries and their recorded results:
Is MIC of `CC(=O)N[C@@H]1[C@H](O[C@@H]2c3ccc(c(Cl)c3)Oc3cc4cc(c3O)Oc3ccc(cc3Cl)C[C@H]3NC(=O)Cc5ccc(O)c(c5)Oc5cc(O)cc(c5)[C@H](NC3=O)C(=O)N[C@H]4C(=O)N[C@H]3C(=O)N[C@@H]2C(=O)N[C@H](C(=O)O)c2cc(O)cc(O)c2-c2cc3ccc2O)O[C@@H](CO)[C@@H](O)[C@@H]1O` strictly below 1 µg/mL?
F

Same again, this time with `CN(C)CCCNC(=O)[C@H]1NC(=O)[C@H]2NC(=O)[C@H](NC(=O)[C@@H]3NC(=O)[C@H]4NC(=O)[C@@H](Cc5ccc(c(Cl)c5)Oc5cc3cc(c5O)Oc3ccc(cc3Cl)[C@H]2O)NC(=O)[C@H](N)c2ccc(O)c(c2)Oc2cc(O)cc4c2)c2ccc(O)c(c2)-c2c(O)cc(O)cc21`
T

Same again, this time with `CC(=O)N[C@@H]1[C@H](O[C@@H]2c3ccc(c(Cl)c3)Oc3cc4cc(c3O)Oc3ccc(cc3Cl)C[C@H]3NC(=O)[C@H](N)c5ccc(O)c(c5)Oc5cc(O)cc(c5)[C@H](NC3=O)C(=O)N[C@H]4C(=O)N[C@H]3C(=O)N[C@@H]2C(=O)N[C@H](C(=O)O)c2cc(O)cc(O[C@H]4O[C@H](CO)[C@@H](O)[C@@H](O)[C@@H]4O)c2-c2cc3ccc2O)O[C@@H](CO)[C@@H](O)[C@@H]1O`
F

Same again, this time with `N[C@H]1C(=O)N[C@@H]2Cc3ccc(c(Cl)c3)Oc3cc4cc(c3O)Oc3ccc(cc3Cl)[C@@H](O)[C@@H]3NC(=O)[C@H](NC(=O)[C@@H]4NC(=O)[C@@H](NC2=O)c2cc(O)cc(c2)Oc2cc1ccc2O)c1ccc(O)c(c1)-c1c(O)cc(O)cc1[C@@H](C(=O)O)NC3=O`
T

Next, consider the following compound.
Is MIC of `CCCCCCCCCC(=O)N[C@@H]1[C@H](Oc2c3cc4cc2Oc2ccc(cc2Cl)[C@@H](O[C@@H]2O[C@@H](CO)[C@@H](O)[C@H](O)[C@@H]2NC(C)=O)[C@@H]2NC(=O)[C@H](NC(=O)[C@@H]4NC(=O)[C@H]4NC(=O)[C@@H](Cc5ccc(c(Cl)c5)O3)NC(=O)Cc3ccc(O)c(c3)Oc3cc(O)cc4c3)c3ccc(O)c(c3)-c3c(O[C@H]4O[C@H](CO)[C@@H](O)[C@@H](O)[C@@H]4O)cc(O)cc3[C@@H](C(=O)N(C)C)NC2=O)O[C@@H](CO)[C@@H](O)[C@@H]1O` strictly below 1 µg/mL?
T

====

Measured MIC, listed per entry for reference.
System: Streptococcus pneumoniae
Test: Minimal inhibitory concentration of compound against Streptococcus pneumoniae UC41
Assay type: functional
Provide the reading as a plain figure in µg/mL.

These recorded examples may help you get a feel for the data.
# get_value(readout='MIC', item= `CCCCCCCCCC(=O)N[C@@H]1[C@H](Oc2c3cc4cc2Oc2ccc(cc2Cl)[C@@H](O[C@@H]2O[C@@H](CO)[C@@H](O)[C@H](O)[C@@H]2NC(C)=O)[C@@H]2NC(=O)[C@H](NC(=O)[C@@H]4NC(=O)[C@H]4NC(=O)[C@@H](Cc5ccc(c(Cl)c5)O3)NC(=O)[C@H](N)c3ccc(O)c(c3)Oc3cc(O)cc4c3)c3ccc(O)c(c3)-c3c(O[C@H]4O[C@H](CO)[C@@H](O)[C@@H](O)[C@@H]4O)cc(O)cc3[C@@H](C(=O)N(C)C)NC2=O)O[C@@H](CO)[C@@H](O)[C@@H]1O` )
0.06

Same again, this time with `O=C1Cc2ccc(O)c(c2)Oc2cc(O)cc(c2)[C@@H]2NC(=O)[C@@H](Cc3ccc(c(Cl)c3)Oc3cc4cc(c3O)Oc3ccc(cc3Cl)[C@@H](O)[C@@H]3NC(=O)[C@H](NC(=O)[C@@H]4NC2=O)c2ccc(O)c(c2)-c2c(O)cc(O)cc2[C@@H](C(=O)O)NC3=O)N1`
0.06

Same again, this time with `CCCCCCCCCC(=O)N[C@@H]1[C@H](Oc2c3cc4cc2Oc2ccc(cc2Cl)[C@@H](O[C@@H]2O[C@@H](CO)[C@@H](O)[C@H](O)[C@@H]2NC(C)=O)[C@@H]2NC(=O)[C@H](NC(=O)[C@@H]4NC(=O)[C@H]4NC(=O)[C@@H](Cc5ccc(c(Cl)c5)O3)NC(=O)Cc3ccc(O)c(c3)Oc3cc(O)cc4c3)c3ccc(O)c(c3)-c3c(O[C@H]4O[C@H](CO)[C@@H](O)[C@@H](O)[C@@H]4O)cc(O)cc3[C@@H](C(=O)O)NC2=O)O[C@@H](CO)[C@@H](O)[C@@H]1O`
0.25

Same again, this time with `CCCCCCCCCC(=O)N[C@@H]1[C@H](Oc2c3cc4cc2Oc2ccc(cc2Cl)[C@@H](O[C@@H]2O[C@@H](CO)[C@@H](O)[C@H](O)[C@@H]2NC(C)=O)[C@@H]2NC(=O)[C@H](NC(=O)[C@@H]4NC(=O)[C@H]4NC(=O)[C@@H](Cc5ccc(c(Cl)c5)O3)NC(=O)Cc3ccc(O)c(c3)Oc3cc(O)cc4c3)c3ccc(O)c(c3)-c3c(O[C@H]4O[C@H](CO)[C@@H](O)[C@@H](O)[C@@H]4O)cc(O)cc3[C@@H](C(=O)N(C)C)NC2=O)O[C@@H](CO)[C@@H](O)[C@@H]1O`
0.12

Same again, this time with `CN(C)CCCNC(=O)[C@H]1NC(=O)[C@H]2NC(=O)[C@H](NC(=O)[C@@H]3NC(=O)[C@H]4NC(=O)[C@@H](Cc5ccc(c(Cl)c5)Oc5cc3cc(c5O)Oc3ccc(cc3Cl)[C@H]2O)NC(=O)[C@H](N)c2ccc(O)c(c2)Oc2cc(O)cc4c2)c2ccc(O)c(c2)-c2c(O)cc(O)cc21`
0.06

Same again, this time with `CC(=O)N[C@@H]1[C@H](O[C@@H]2c3ccc(c(Cl)c3)Oc3cc4cc(c3O)Oc3ccc(cc3Cl)C[C@H]3NC(=O)[C@H](N)c5ccc(O)c(c5)Oc5cc(O)cc(c5)[C@H](NC3=O)C(=O)N[C@H]4C(=O)N[C@H]3C(=O)N[C@@H]2C(=O)N[C@H](C(=O)O)c2cc(O)cc(O[C@H]4O[C@H](CO)[C@@H](O)[C@@H](O)[C@@H]4O)c2-c2cc3ccc2O)O[C@@H](CO)[C@@H](O)[C@@H]1O`
0.5

Same again, this time with O=C1Cc2ccc(O)c(c2)Oc2cc(O)cc(c2)[C@@H]2NC(=O)[C@@H](Cc3ccc(c(Cl)c3)Oc3cc4cc(c3O)Oc3ccc(cc3Cl)[C@@H](O)[C@@H]3NC(=O)[C@H](NC(=O)[C@@H]4NC2=O)c2ccc(O)c(c2)-c2c(O)cc(O)cc2[C@@H](C(=O)NC2CN4CCC2CC4)NC3=O)N1 (some centres undefined)
0.12

Same again, this time with `CC(=O)N[C@@H]1[C@H](O[C@@H]2c3ccc(c(Cl)c3)Oc3cc4cc(c3O)Oc3ccc(cc3Cl)C[C@H]3NC(=O)[C@H](N)c5ccc(O)c(c5)Oc5cc(O)cc(c5)[C@H](NC3=O)C(=O)N[C@H]4C(=O)N[C@H]3C(=O)N[C@@H]2C(=O)N[C@H](C(=O)O)c2cc(O)cc(O)c2-c2cc3ccc2O)O[C@@H](CO)[C@@H](O)[C@@H]1O`
1

New cases:
# get_value(readout='MIC', item= N[C@H]1C(=O)N[C@@H]2Cc3ccc(c(Cl)c3)Oc3cc4cc(c3O)Oc3ccc(cc3Cl)[C@@H](O)[C@@H]3NC(=O)[C@H](NC(=O)[C@@H]4NC(=O)[C@@H](NC2=O)c2cc(O)cc(c2)Oc2cc1ccc2O)c1ccc(O)c(c1)-c1c(O)cc(O)cc1[C@@H](C(=O)NC1CN2CCC1CC2)NC3=O (some centres undefined) )
0.06

====

Tested on: Streptococcus pneumoniae
Experiment: Minimal inhibitory concentration of compound against Streptococcus pneumoniae UC41
Type: functional
experimental.endpoint: MIC (µg/mL)
Provide the reading as a plain figure in µg/mL.

Lookup: MIC / Streptococcus pneumoniae / `CCCCCCCCCC(=O)N[C@@H]1[C@H](Oc2c3cc4cc2Oc2ccc(cc2Cl)[C@@H](O[C@@H]2O[C@@H](CO)[C@@H](O)[C@H](O)[C@@H]2NC(C)=O)[C@@H]2NC(=O)[C@H](NC(=O)[C@@H]4NC(=O)[C@H]4NC(=O)[C@@H](Cc5ccc(c(Cl)c5)O3)NC(=O)[C@H](N)c3ccc(O)c(c3)Oc3cc(O)cc4c3)c3ccc(O)c(c3)-c3c(O[C@H]4O[C@H](CO)[C@@H](O)[C@@H](O)[C@@H]4O)cc(O)cc3[C@@H](C(=O)O)NC2=O)O[C@@H](CO)[C@@H](O)[C@@H]1O`
0.06

// next entry
Lookup: MIC / Streptococcus pneumoniae / `CN(C)CCCNC(=O)[C@H]1NC(=O)[C@H]2NC(=O)[C@H](NC(=O)[C@@H]3NC(=O)[C@H]4NC(=O)[C@@H](Cc5ccc(c(Cl)c5)Oc5cc3cc(c5O)Oc3ccc(cc3Cl)[C@H]2O)NC(=O)Cc2ccc(O)c(c2)Oc2cc(O)cc4c2)c2ccc(O)c(c2)-c2c(O)cc(O)cc21`
0.2
